Source: ChEMBL document CHEMBL1128814

# subject_of_test: Histamine H1 receptor (Cavia porcellus) (UniProt P31389)
# Sequence (P31389 whole entry): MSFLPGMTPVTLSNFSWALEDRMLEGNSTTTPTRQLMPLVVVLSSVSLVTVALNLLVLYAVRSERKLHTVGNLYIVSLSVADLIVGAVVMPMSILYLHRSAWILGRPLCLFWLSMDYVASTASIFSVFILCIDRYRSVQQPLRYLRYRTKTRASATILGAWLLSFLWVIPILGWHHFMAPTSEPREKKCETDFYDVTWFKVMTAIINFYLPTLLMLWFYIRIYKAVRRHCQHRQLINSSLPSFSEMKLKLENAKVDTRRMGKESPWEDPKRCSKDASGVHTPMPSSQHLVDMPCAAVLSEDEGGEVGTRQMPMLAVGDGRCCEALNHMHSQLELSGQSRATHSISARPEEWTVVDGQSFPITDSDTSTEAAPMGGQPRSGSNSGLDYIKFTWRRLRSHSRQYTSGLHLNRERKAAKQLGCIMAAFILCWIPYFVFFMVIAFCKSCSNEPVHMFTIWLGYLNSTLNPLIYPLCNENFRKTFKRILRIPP
# method: Antagonistic activity (H1 antagonism) evaluated by the inhibition of histamine-stimulated contraction in guinea pig ileum at a concentration of 1E-7 - 1E-4 M
# Assay type: functional, tissue-based
Please enter TRUE where pKB is greater than or equal to 6, and FALSE where it is lower.

compound="Cc1ccc(CC(CC/N=C(/NCCCc2c[nH]cn2)NC2CCCCC2)c2ccccn2)cc1 (stereo not given)" subject_of_test="Histamine H1 receptor (Cavia porcellus) (UniProt P31389)" class_assignment=FALSE
compound="N=C(NCCCc1c[nH]cn1)NCCCC(c1ccc(Cl)c(Cl)c1)c1ccccn1 (stereo not given)" subject_of_test="Histamine H1 receptor (Cavia porcellus) (UniProt P31389)" class_assignment=TRUE
compound="N=C(NCCCc1c[nH]cn1)NCCC(c1ccc(Cl)c(Cl)c1)c1ccccn1 (stereo not given)" subject_of_test="Histamine H1 receptor (Cavia porcellus) (UniProt P31389)" class_assignment=TRUE
compound="Clc1ccc(C(CCC/N=C(/NCCCc2c[nH]cn2)Nc2ccccc2)c2ccccn2)cc1Cl (stereo not given)" subject_of_test="Histamine H1 receptor (Cavia porcellus) (UniProt P31389)" class_assignment=FALSE
